Data origin, for the record: paper PMC9352680

Biological target: T1, PUF4 RNA-binding domain (Saccharomyces cerevisiae, UniProt P25339 537-888)
T1 sequence: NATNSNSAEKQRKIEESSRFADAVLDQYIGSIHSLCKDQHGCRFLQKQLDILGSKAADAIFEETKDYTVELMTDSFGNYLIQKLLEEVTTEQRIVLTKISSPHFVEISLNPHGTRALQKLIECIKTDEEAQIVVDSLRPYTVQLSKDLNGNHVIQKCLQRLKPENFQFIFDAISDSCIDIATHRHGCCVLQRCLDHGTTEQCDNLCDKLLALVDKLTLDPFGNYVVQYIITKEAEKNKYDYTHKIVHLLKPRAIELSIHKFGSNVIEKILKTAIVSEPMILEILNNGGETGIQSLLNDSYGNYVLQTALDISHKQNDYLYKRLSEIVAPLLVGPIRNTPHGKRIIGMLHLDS
Experiment: Mg; RNA-MaP; 20 mM Na-HEPES pH 7.4, 30 mM KOAc, 0.75 mM MgCl2, 0.1% Tween-20, 5% glycerol, 0.1 mg/mL BSA, 2 mM DTT; 25 C; 0.0125-409.6 nM protein
Details: tags: N-His6-TEV cleaved; C-SNAP kept, Cy3B-labelled; label: tethered on chip by stalled RNA polymerase
pKd: −log10 of the molar value.
// map pKd onto a label; ranges Low: < 7; Mid: ≥ 7 and < 8; High: ≥ 8

The examples below pair each entry with its known result.
UCUCUUUGUAAUACUCUCUU (ssRNA) [Ic_S1_P3E.1_K3.1_C3.1_H3.1_A3.1_[T5A]_[A6T]_F3.1_[T7A]_[A8C]_T3.1]	Low
UCUCUUUAUAUAUGUCUCUU (ssRNA) [Ib_S1_P3E.1_K3.1_C3.1_H3.1_[G2A]_A3.1_F3.1_[A8G]_T3.1]	Low
UCUCUUCUCCUGUAUAUAUAUCUCUU (ssRNA) [Ie_S1_P3E.2_K3.1_C3.2_[+-1CC]_H3.1_A3.1_F3.1_T3.2]	High
Ic_S2_P3E.1_K3.1_C3.1_H3.1_A3.1_F3.1_[T7C]_[A8C]_T3.1 (ssRNA) RNA: UUUGAUUAAUAUGAUAUCGUUCUUUCUUGUAUACCUUCUUUCUCGAUAUCAUAUUAAUCUUU	Mid
UCUCUUAUACACUAUAUAUCUCUU (ssRNA) [Id_ii_S1_P3E.4_K3.3_C3.2_[C-2A]_H3.3_A3.1_F3.1_T3.2]	Mid

In: Which of the defined bands does the recorded pKd of UCUCUUUGUAAUACCUCUCUU (ssRNA) [Ic_S1_P4E.1_K4.1_C4.1_H4.1_A4.1_[T5A]_[A6T]_[T7A]_F4.1_[T8C]_[A9C]_T4.1] sit within?
Out: Low

In: Which of the defined bands does the recorded pKd of Ib_S2_P4E.1_K4.1_C4.1_H4.1_A4.1_[T5C]_[A6C]_F4.1_T4.1 (ssRNA) RNA: UUUGAUUAAUAUGAUAUCGUUCUUUCUUGUACCUUAUUCUUUCUCGAUAUCAUAUUAAUCUUU sit within?
Out: High

In: Which of the defined bands does the recorded pKd of UCUCUUUGUACCCCAAUCUCUU (ssRNA) [Ic_S1_P5E.1_K5.1_C5.1_H5.1_A5.1_[T5C]_[T6C]_[A7C]_F5.1_[T8C]_[T9A]_T5.1] sit within?
Out: Low

In: Which of the defined bands does the recorded pKd of Ib_S2_P4E.1_K4.1_C4.1_H4.1_[T1G]_[A4G]_A4.1_F4.1_T4.1 (ssRNA) RNA: UUUGAUUAAUAUGAUAUCGUUCUUUCUGGUGUAUUAUUCUUUCUCGAUAUCAUAUUAAUCUUU sit within?
Out: Mid

In: Which of the defined bands does the recorded pKd of UCUCUUAAACACUAUAGCUCUCUU (ssRNA) [Id_ii_S1_P3E.4_K3.3_C3.2_[C-2A]_[T-1A]_H3.3_A3.1_F3.1_T3.2_[T9G]_[A10C]] sit within?
Out: Low
